- Test system: Fibroblast
- EXPERIMENTAL PROTOCOL: Multiplex assay against human fibroblast
- Format: toxicity, cell-based
- MEASUREMENT CONTEXT: 12 h, 10 µM, compound concentration 10 uM, replicate 2
Task for the reader: assign each of the following compounds its reported Total Cell Count.
Answers are plain numbers.

compound=COCCn1c(C)c(C)s/c1=N\C(=O)C1C(C)(C)C1(C)C subject_of_test=Fibroblast value_reported=120
compound=O=c1ccc2ccc(OCCCCN3CCN(c4cccc5sccc45)CC3)cc2[nH]1 subject_of_test=Fibroblast value_reported=243
compound=COc1cc(Nc2ncc3c(n2)-c2ccc(Cl)cc2C(c2c(F)cccc2OC)=NC3)ccc1C(=O)O subject_of_test=Fibroblast value_reported=89
compound=COc1cc2nc(N3CCN(C(=O)COc4c(OC)cccc4C(C)C)CC3)nc(N)c2cc1OC.Cl.Cl subject_of_test=Fibroblast value_reported=283

Next up:
Lab note: need Total Cell Count with Fibroblast for entry O=C(NCCNCC(O)COc1ccc(O)cc1)N1CCOCC1.O=C(NCCNCC(O)COc1ccc(O)cc1)N1CCOCC1.O=C(O)/C=C/C(=O)O (stereo not given) [XAMOTEROL FUMARATE] , please look it up.
154

----------
- System: Fibroblast
- EXPERIMENTAL PROTOCOL: Multiplex assay against human fibroblast
- Assay type: toxicity, cell-based
- MEASUREMENT CONTEXT: 48 h, 10 µM, compound concentration 10 uM, replicate 2
Task for the reader: assign each of the following compounds its reported Population Apoptotic (%).
Answers are plain numbers, in %.

Some solved entries appear below for comparison.
cpd_smiles=COc1cc(Nc2ncc3c(n2)-c2ccc(Cl)cc2C(c2c(F)cccc2OC)=NC3)ccc1C(=O)O subject_of_test=Fibroblast unit_info=% value_reported=66
cpd_smiles=CCCCC[C@H](O)/C=C/[C@H]1[C@H](O)CC(=O)[C@@H]1CCCCCCC(=O)O subject_of_test=Fibroblast unit_info=% value_reported=48
cpd_smiles=OCCCNc1cc(-c2ccnc(Nc3cccc(Cl)c3)n2)ccn1 subject_of_test=Fibroblast unit_info=% value_reported=85
cpd_smiles=C[C@@H]1CC(=O)Nc2cccc(-c3ccc4c(c3)c(-c3cnn(C)c3)nn4C)c2N1 subject_of_test=Fibroblast unit_info=% value_reported=60

Next up:
Please look up its Population Apoptotic (%): CSc1nc(NC2CCCC2)c([N+](=O)[O-])c(NC2CCCC2)n1
60

----------
Task for the reader: assign each of the following molecules its reported Population Apoptotic (%).
- System: Fibroblast
- EXPERIMENTAL PROTOCOL: Multiplex assay against human fibroblast
- Format: toxicity, cell-based
- MEASUREMENT CONTEXT: 24 h, 10 µM, compound concentration 10 uM, replicate 1
One number for each entry, in %.

molecule=OCCCNc1cc(-c2ccnc(Nc3cccc(Cl)c3)n2)ccn1 quantity="Population Apoptotic (%)" unit_info=% value_reported=80
molecule="Cc1ccc(OCC(O)C(C)NC(C)C)c2c1CCC2.Cl (centres undefined)" quantity="Population Apoptotic (%)" unit_info=% value_reported=35
molecule=C[C@H](NC(=O)CNC(=O)c1cccc(Cl)c1)c1ccccc1 quantity="Population Apoptotic (%)" unit_info=% value_reported=52

Next up:
Please look up its Population Apoptotic (%): CC(C)(O)C(=O)N1CCN(c2ccc(C(F)(F)F)c(C3=C(c4c[nH]c5ccccc45)C(=O)NC3=O)c2)CC1
26
